target: LHRH receptor (LHRH binding sites) on EFO-27 human ovarian cancer cells (human); experiment: competition with [125I-Tyr8]BRU-2477 for binding to EFO-27 cells
pEC50: −log10 of the molar value. Non-standard residues stand in square brackets, D forms with d. d1Nal = N[C@H](Cc1cccc2ccccc12)C(=O)O; DO3A10CM = not defined here; Bpa4 = non-natural residue; azaGly = NNC(=O)O
measuredProperty: pEC50

XRWSHXWXP (as printed: DO3A10CM-Dnal2-Arg-Trp-Ser-His-Darg-Trp-Bpa4-Pro-Da15o3pt (C-terminal amide of 1,5-diamino-3-oxapentane)) [BRU-2968]	6.62
XRWSHXWXP (as printed: Dnal2-R-W-S-H-Darg-W-Bpa4-P-Dabt14-DO3A10CM (C-terminal chelator)) [BRU-3042]	6.70
XXRWSHXWXPX (as printed: DO3A10CM-Gly-Abz4-Dnal2-Arg-Trp-Ser-His-Darg-Trp-Bpa4-Pro-azaGly-NH2 (Gly-Abz4 is the linker)) [BRU-3002]	6.30
XRWSHXWXP (as printed: Sar-R-W-S-H-Darg-W-Bpa4-P-M1daprp13-DO3A10CM (C-terminal chelator)) [BRU-3086]	5.99
XXRWSHXWXPX (as printed: DO3A10CM-Dlys-Dnal2-Arg-Trp-Ser-His-Darg-Trp-Bpa4-Pro-azaGly-NH2 (Dlys is the linker)) [BRU-3099]	6.36
XXHWSHXWXPX (as printed: DO3A10CM-Gly-Abz4-Sar-His-Trp-Ser-His-Darg-Trp-Bpa4-Pro-azaGly-NH2 (Gly-Abz4 is the linker)) [BRU-2696]	6.19
XRWSHXWXPP (as printed: Sar-R-W-S-H-Darg-W-Bpa4-P-P-Az23po-Da15o3pt-DO3A10CM (C-terminal chelator)) [BRU-3073]	6.08
DO3A10CM-G[d1Nal]HWSH[dR]W[Bpa4]P[azaGly]-NH2 (reading uncertain; also: printed as DO3A10CM-Gly-Dnal1-His-Trp-Ser-His-Darg-Trp-Bpa4-Pro-azaGly-NH2) [BRU-2766]	6.19
XRWSHXWXP (as printed: Sar-R-W-S-H-Darg-W-Bpa4-P-Bampy26-DO3A10CM (C-terminal chelator)) [BRU-3080]	6.64
XRWSHXWXP (as printed: Sar-R-W-S-H-Darg-W-Bpa4-P-bap14p-DO3A10CM (C-terminal chelator)) [BRU-3044]	6.62
XRWSHXWXP (as printed: Sar-R-W-S-H-Darg-W-Bpa4-P-Da15o3pt-DO3A10CM (C-terminal chelator)) [BRU-3039]	6.55
XRWSHXWXP (as printed: Sar-R-W-S-H-Darg-W-Bpa4-P-NHNH-DO3A10CM (C-terminal chelator)) [BRU-3074]	5.83
GGHWSHXWXPX (as printed: DO3A10CM-Gly-Gly-His-Trp-Ser-His-Darg-Trp-Bpa4-Pro-azaGly-NH2 (first Gly is the linker)) [BRU-2795]	5.86
XRWSHXWXP (as printed: DO3A10CM-Da48oa-Dnal2-Arg-Trp-Ser-His-Darg-Trp-Bpa4-Pro-Da15o3pt (Da48oa is the linker)) [BRU-3100]	6.85
XRWSHXWXP (as printed: Sar-R-W-S-H-Darg-W-Bpa4-P-Maz4dahp17-DO3A10CM (C-terminal chelator)) [BRU-3045]	6.68
